measurement kind: melting point

Consider Fc1ccc2c(c1)COB2C=Cc1ccccc1 [10b] . Its measured melting point is 84 to 86 °C

Consider "Fc1ccc(B2OCc3cc(F)ccc32)cc1" . Its measured melting point is 75 to 77 °C

Consider "OB1OCc2ccc(N(Cc3ccccc3)Cc3ccccc3)cc21" . Its measured melting point is 115 to 123 °C

Consider "OB1OCc2ccc(N3CCN(c4ccccn4)CC3)cc21" . Its measured melting point is 135 to 138 °C

Consider "COc1ccc(Sc2ccc3c(c2)B(O)OC3)cc1" . Its measured melting point is 95 to 100 °C

Consider "OB1OCc2ccc(NCc3ccccc3)cc21" . Its measured melting point is 126 to 133 °C

Consider "O=C(O)COc1ccc2c(c1)COB2O" . Its measured melting point is 163 to 166 °C

Consider "OB1OCc2cc(F)c(NCc3ccccc3)cc21" . Its measured melting point is 159 to 164 °C

Consider "CCOC(=O)COc1ccc2c(c1)COB2O" . Its measured melting point is 134 to 137 °C

Consider "Cc1cscc1B1OCc2cc(F)ccc21" . Its measured melting point is 51 to 53 °C

Consider "N#CCCSc1cn(-c2ccc3c(c2)B(O)OC3)c2ccccc12" . Its measured melting point is 135 to 141 °C

Consider Cc1ccc2c(c1)COB2O [C8, 5-methylbenzo[c][1,2]oxaborol-1(3H)-ol] . Its measured melting point is 124 to 128 °C

Consider OB1OCc2ccc3ccccc3c21 [C11, naphtho[1,2-c][1,2]oxaborol-1(3H)-ol] . Its measured melting point is 139 to 143 °C

Consider OB1OCc2ccc(Oc3ccccc3)cc21 [C21, 6-phenoxybenzo[c][1,2]oxaborol-1(3H)-ol] . Its measured melting point is 95 to 99 °C

Consider "OCc1cc2c(cc1Br)COB2O" . Its measured melting point is > 257 °C

Consider [O-][S+](c1ccc(Cl)cc1)c1ccc2c(c1)B(O)OC2 (stereo not drawn) . Its measured melting point is 154 to 161 °C

Consider "COc1ccc(S(=O)(=O)c2ccc3c(c2)B(O)OC3)cc1" . Its measured melting point is 180 to 192 °C

Consider OB1OCc2ccc(F)cc21 [C13, 6-fluorobenzo[c][1,2]oxaborol-1(3H)-ol] . Its measured melting point is 110 to 117.5 °C

Consider "CC(=O)Nc1ccc2c(c1)B(O)OC2" . Its measured melting point is 176 to 185 °C

Consider "N#Cc1cccc(Oc2ccc3c(c2)B(O)OC3)c1" . Its measured melting point is 146 to 149 °C

Consider "CN(C)c1ccc2c(c1)B(O)OC2" . Its measured melting point is 120 to 123 °C

Consider "Cc1ccc(B2OCc3cc(F)ccc32)cc1" . Its measured melting point is 48 to 49 °C

Consider "Fc1ccc2c(c1)COB2c1ccsc1" . Its measured melting point is 33 to 35 °C

Consider "Fc1ccc2c(c1)COB2c1cccnc1" . Its measured melting point is 210 to 212 °C

Consider "Fc1cccc(B2OCc3cc(F)ccc32)c1" . Its measured melting point is 80 to 82 °C

Consider "O=C(COc1ccc2c(c1)COB2O)N1CCN(c2ncccn2)CC1" . Its measured melting point is 190 to 195 °C

Consider [O-][S+](c1ccc(C(F)(F)F)cc1)c1ccc2c(c1)B(O)OC2 (stereo not drawn) . Its measured melting point is 79 to 88 °C

Consider "OB1OCc2ccc(Sc3ccc(C(F)(F)F)cc3)cc21" . Its measured melting point is 111 to 113 °C

Consider "N#Cc1cccc(COc2ccc3c(c2)COB3O)c1" . Its measured melting point is 147 to 150 °C

Consider "OB1OCc2ccc(-n3ccc4cc(Cl)ccc43)cc21" . Its measured melting point is 149 to 154 °C

Consider "O=[N+]([O-])c1cc2c(cc1F)COB2O" . Its measured melting point is 162 to 167 °C

Consider "N#CCCSc1cn(-c2ccc3c(c2)B(O)OC3)c2ccc(Cl)cc12" . Its measured melting point is > 225 °C

Consider "Cc1ccc(Sc2ccc3c(c2)B(O)OC3)cc1" . Its measured melting point is 139 to 144 °C

Consider "COc1ccc2c(ccn2-c2ccc3c(c2)B(O)OC3)c1" . Its measured melting point is 120 to 124 °C

Consider "OB1OCc2ccc(Sc3ccc(Cl)cc3)cc21" . Its measured melting point is 157 to 161 °C

Consider "O=S(=O)(Nc1ccc2c(c1)B(O)OC2)c1ccccc1" . Its measured melting point is 175 to 184 °C

Consider "O=S(=O)(c1ccc(Cl)cc1)c1ccc2c(c1)B(O)OC2" . Its measured melting point is 157 to 163 °C

Consider "O=C(Nc1ccc2c(c1)B(O)OC2)c1ccccc1" . Its measured melting point is 186 to 193 °C

Consider "OB1OCc2ccc(Sc3cccs3)cc21" . Its measured melting point is 99 to 104 °C

Consider "OB1OCc2ccc(N3CCN(c4ccccc4)CC3)cc21" . Its measured melting point is 159 to 161 °C

Consider "COc1ccc2c(c1)c(SCCC#N)cn2-c1ccc2c(c1)B(O)OC2" . Its measured melting point is 149 to 154 °C

Consider Cc1cccc2c1B(O)OC2 [C65, 7-methylbenzo[c][1,2]oxaborol-1(3H)-ol] . Its measured melting point is 107 to 111 °C

Consider "OB1OCc2ccc(-n3cc(Sc4ccccc4)c4ccccc43)cc21" . Its measured melting point is 159 to 163 °C

Consider OB1OCc2cccc(F)c21 [C86, 7-fluorobenzo[c][1,2]oxaborol-1(3H)-ol] . Its measured melting point is 120 to 124 °C

Consider "CCCCC(=O)c1cccc(COc2ccc3c(c2)COB3O)c1" . Its measured melting point is 96 to 98 °C
